Molecular target: Bromodomain-containing protein 9 (Homo sapiens)
Sequence (Q9H8M2 whole entry): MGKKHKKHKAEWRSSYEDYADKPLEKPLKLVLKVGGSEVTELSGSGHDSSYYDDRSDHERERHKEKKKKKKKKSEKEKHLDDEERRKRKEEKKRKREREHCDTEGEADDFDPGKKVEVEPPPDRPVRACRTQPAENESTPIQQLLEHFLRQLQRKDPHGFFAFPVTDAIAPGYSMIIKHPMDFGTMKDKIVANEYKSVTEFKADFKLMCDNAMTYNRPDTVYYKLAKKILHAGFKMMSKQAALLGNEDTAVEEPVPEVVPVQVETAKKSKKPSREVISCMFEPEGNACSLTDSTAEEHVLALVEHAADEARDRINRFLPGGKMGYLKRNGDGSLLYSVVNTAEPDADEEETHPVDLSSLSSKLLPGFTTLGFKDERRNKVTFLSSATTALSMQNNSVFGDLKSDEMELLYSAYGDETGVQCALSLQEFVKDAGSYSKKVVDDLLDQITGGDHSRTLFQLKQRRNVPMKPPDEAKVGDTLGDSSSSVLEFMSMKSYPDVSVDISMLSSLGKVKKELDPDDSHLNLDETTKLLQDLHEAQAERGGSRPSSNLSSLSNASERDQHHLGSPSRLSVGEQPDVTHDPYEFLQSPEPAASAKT
Assay: Binding affinity to BRD9 in human HUT78 cells incubated for 45 mins by mass spectrometry based bromosphere chemoproteomic assay
Some compounds, each annotated with its measured pKd.
pKd field: float, defined as -log10 of concentration (mol/L).

* Cc1cncc(-c2cnc(N[C@@H]3CCN(C)C[C@H]3OCC3CCS(=O)(=O)CC3)c3[nH]c(=O)c(C)cc23)c1 | 4.80
* Cc1cncc(-c2cnc(N[C@@H]3CCNC[C@H]3OCC3CCCCC3)c3[nH]c(=O)c(C)cc23)c1 | 4.80

// below: pKd requested for another compound
Query: // query pKd value for entry Cc1cncc(-c2ccc(N[C@@H]3CCNC[C@H]3OCC3CCS(=O)(=O)CC3)c3[nH]c(=O)c(C)cc23)c1
Response: 5.90

====

Target: SWI/SNF-related matrix-associated actin-dependent regulator of chromatin subfamily A member 4 (Homo sapiens, UniProt P51532)
Test: Binding affinity to SMARCA4 in human HUT78 cells incubated for 45 mins by mass spectrometry based bromosphere chemoproteomic assay
property label: pKd
pKd field: float, defined as -log10 of concentration (mol/L).

Query: // query pKd value for entry Cc1cncc(-c2cnc(N[C@@H]3CCN(C)C[C@H]3OCC3CCS(=O)(=O)CC3)c3[nH]c(=O)c(C)cc23)c1
Response: 4.70

====

Test system Bromodomain-containing protein 4 (Homo sapiens, UniProt O60885, Y390A), log10(IC50) listed for each of the compounds.
Could you please treat all values as log10 of IC50 in µM?

Examples with answers:
• Cc1cc2ccnc(N[C@@H]3CCNC[C@H]3OCC3CCS(=O)(=O)CC3)c2[nH]c1=O (racemic) = 0.80
• Cc1cc2c(-c3cccnc3)cnc(N[C@@H]3CCNC[C@H]3OCC3CCS(=O)(=O)CC3)c2[nH]c1=O = 1.00

Query: // map Cc1cncc(-c2cnc(N[C@@H]3CCN(C)C[C@H]3OCC3CCS(=O)(=O)CC3)c3[nH]c(=O)c(C)cc23)c1 to recorded log10(IC50) (system: Bromodomain-containing protein 4 (Homo sapiens, UniProt O60885, Y390A))
Response: 1.90

====

Some molecules, each annotated with its measured pKd.
Biological target: Histone acetyltransferase KAT2B (Homo sapiens)
Sequence (Q92831 whole entry): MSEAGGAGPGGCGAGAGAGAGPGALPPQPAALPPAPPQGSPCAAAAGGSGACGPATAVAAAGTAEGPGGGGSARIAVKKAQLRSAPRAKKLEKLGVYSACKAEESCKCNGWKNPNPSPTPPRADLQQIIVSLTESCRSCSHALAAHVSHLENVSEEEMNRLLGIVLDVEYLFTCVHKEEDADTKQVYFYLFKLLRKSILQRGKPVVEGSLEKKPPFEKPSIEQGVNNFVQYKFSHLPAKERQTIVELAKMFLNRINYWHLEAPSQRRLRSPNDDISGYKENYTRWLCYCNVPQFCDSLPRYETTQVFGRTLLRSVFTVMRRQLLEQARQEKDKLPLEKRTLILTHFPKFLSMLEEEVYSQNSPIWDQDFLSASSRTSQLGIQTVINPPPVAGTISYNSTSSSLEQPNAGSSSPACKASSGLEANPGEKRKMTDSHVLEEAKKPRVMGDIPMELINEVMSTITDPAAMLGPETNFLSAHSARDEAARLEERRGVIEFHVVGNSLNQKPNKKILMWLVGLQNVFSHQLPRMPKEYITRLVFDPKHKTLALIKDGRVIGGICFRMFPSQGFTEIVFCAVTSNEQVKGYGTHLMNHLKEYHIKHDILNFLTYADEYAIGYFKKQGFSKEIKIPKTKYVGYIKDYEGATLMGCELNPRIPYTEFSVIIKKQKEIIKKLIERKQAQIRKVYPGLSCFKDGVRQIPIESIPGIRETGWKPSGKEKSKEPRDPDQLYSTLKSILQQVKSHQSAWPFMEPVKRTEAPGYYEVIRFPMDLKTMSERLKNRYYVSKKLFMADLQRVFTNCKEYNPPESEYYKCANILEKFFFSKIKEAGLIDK
Test: Binding affinity to KAT2B in human HUT78 cells incubated for 45 mins by mass spectrometry based bromosphere chemoproteomic assay
pKd: −log10 of the molar value.

- Cc1cncc(-c2ccc(N[C@@H]3CCNC[C@H]3OCC3CCS(=O)(=O)CC3)c3[nH]c(=O)c(C)cc23)c1: < 4.00

// below: pKd requested for another molecule
Query: // query pKd value for entry Cc1cncc(-c2cnc(N[C@@H]3CCN(C)C[C@H]3OCC3CCS(=O)(=O)CC3)c3[nH]c(=O)c(C)cc23)c1
Response: < 4.00

====

Biological target: ATPase family AAA domain-containing protein 2B (Homo sapiens, UniProt Q9ULI0)
Sequence (Q9ULI0 whole entry, the tested form may be a part): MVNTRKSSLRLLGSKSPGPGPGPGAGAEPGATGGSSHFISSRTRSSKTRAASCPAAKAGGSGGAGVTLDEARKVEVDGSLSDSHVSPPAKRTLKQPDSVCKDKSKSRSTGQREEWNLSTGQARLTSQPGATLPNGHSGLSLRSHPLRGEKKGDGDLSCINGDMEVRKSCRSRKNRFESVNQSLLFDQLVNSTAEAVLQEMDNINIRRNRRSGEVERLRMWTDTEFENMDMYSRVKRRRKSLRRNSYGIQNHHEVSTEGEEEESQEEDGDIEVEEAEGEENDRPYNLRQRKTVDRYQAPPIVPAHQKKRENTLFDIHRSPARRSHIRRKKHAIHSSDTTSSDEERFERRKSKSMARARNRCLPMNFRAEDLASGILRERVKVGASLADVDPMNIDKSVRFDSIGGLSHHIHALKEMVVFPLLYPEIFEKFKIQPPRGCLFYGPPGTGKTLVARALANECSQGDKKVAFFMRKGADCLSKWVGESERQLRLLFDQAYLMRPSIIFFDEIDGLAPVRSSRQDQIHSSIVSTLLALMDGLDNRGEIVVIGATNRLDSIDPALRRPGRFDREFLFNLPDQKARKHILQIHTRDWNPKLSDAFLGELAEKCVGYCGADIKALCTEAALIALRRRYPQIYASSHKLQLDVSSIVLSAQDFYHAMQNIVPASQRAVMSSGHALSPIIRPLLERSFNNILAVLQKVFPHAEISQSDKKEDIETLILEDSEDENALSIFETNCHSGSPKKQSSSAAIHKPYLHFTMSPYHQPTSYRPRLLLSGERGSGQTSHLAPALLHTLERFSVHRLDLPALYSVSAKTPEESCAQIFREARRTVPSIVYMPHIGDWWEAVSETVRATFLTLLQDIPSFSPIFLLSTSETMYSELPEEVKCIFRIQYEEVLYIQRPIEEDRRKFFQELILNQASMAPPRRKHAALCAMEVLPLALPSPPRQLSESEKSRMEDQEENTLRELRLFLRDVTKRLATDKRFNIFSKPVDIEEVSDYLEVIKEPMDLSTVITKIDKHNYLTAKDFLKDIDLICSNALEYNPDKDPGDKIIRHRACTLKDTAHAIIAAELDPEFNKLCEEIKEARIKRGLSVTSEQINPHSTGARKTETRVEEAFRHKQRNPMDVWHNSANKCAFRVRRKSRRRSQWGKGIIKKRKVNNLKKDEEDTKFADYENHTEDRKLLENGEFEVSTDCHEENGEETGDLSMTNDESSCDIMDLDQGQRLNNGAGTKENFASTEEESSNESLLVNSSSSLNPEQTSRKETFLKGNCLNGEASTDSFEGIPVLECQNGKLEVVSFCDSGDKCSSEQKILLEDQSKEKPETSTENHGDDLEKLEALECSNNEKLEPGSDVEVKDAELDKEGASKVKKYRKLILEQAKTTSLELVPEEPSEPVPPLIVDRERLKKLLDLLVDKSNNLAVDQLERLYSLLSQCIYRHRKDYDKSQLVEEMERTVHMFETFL
Assay: Binding affinity to ATAD2B in human HUT78 cells incubated for 45 mins by mass spectrometry based bromosphere chemoproteomic assay
property label: pKd
pKd field: float, defined as -log10 of concentration (mol/L).

Query: // query pKd value for entry Cc1cncc(-c2cnc(N[C@@H]3CCN(C)C[C@H]3OCC3CCS(=O)(=O)CC3)c3[nH]c(=O)c(C)cc23)c1
Response: 7.00

====

Biological target: Bromodomain-containing protein 4 (Homo sapiens)
Test: Binding affinity to BRD4 containing BD2 bromodomains (unknown origin) by TR-FRET assay
property label: IC50 (µM)
Reply with just the number (in µM).

Query: // map Cc1cncc(-c2cnc(N[C@@H]3CCNC[C@H]3OCC3CCS(=O)(=O)CC3)c3[nH]c(=O)c(C)cc23)c1 to recorded IC50 (system: Bromodomain-containing protein 4 (Homo sapiens))
Response: 5.01

====

Biological target: Peregrin (Homo sapiens, UniProt P55201)
Sequence (P55201 whole entry): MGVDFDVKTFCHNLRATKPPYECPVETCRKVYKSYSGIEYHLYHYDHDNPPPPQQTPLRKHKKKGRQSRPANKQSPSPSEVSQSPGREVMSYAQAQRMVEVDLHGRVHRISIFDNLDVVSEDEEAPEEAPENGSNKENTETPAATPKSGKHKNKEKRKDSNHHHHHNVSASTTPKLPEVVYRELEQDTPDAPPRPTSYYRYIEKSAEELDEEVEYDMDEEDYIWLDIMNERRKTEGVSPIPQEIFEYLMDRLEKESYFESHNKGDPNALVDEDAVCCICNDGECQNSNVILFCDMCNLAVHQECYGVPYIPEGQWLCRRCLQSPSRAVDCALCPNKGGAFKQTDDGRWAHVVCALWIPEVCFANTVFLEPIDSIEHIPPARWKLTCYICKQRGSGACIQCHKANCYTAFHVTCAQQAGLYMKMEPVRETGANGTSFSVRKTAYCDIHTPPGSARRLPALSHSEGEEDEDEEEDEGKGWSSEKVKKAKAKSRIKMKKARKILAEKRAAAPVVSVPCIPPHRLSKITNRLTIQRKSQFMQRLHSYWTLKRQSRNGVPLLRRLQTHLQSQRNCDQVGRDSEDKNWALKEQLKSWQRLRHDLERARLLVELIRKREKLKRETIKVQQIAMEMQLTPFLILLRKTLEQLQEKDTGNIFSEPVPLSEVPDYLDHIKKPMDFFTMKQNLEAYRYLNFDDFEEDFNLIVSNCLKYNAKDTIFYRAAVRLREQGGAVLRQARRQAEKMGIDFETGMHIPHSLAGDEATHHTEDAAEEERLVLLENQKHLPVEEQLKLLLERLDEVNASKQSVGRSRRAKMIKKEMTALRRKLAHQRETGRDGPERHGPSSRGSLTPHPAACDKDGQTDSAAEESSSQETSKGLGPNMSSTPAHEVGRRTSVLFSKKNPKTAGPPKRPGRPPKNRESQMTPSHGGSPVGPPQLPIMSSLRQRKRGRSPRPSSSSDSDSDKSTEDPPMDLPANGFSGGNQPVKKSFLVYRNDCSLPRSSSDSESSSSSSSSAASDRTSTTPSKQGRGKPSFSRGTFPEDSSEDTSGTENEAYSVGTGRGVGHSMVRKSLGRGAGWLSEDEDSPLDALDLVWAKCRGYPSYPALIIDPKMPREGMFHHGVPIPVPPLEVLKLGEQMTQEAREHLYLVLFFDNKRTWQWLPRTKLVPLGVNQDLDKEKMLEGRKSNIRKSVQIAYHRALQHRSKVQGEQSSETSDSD
Assay: Binding affinity to BRPF1 (unknown origin) by BROMOscan panel based assay
property label: Ki

Query: // query Ki value for entry Cc1cncc(-c2cnc(N[C@@H]3CCN(C)C[C@H]3OCC3CCS(=O)(=O)CC3)c3[nH]c(=O)c(C)cc23)c1
Response: 5.01 µM

====

Some compounds, each annotated with its measured Kd.
Target: Tyrosine-protein kinase BAZ1B (Homo sapiens)
Sequence (Q9UIG0 whole entry): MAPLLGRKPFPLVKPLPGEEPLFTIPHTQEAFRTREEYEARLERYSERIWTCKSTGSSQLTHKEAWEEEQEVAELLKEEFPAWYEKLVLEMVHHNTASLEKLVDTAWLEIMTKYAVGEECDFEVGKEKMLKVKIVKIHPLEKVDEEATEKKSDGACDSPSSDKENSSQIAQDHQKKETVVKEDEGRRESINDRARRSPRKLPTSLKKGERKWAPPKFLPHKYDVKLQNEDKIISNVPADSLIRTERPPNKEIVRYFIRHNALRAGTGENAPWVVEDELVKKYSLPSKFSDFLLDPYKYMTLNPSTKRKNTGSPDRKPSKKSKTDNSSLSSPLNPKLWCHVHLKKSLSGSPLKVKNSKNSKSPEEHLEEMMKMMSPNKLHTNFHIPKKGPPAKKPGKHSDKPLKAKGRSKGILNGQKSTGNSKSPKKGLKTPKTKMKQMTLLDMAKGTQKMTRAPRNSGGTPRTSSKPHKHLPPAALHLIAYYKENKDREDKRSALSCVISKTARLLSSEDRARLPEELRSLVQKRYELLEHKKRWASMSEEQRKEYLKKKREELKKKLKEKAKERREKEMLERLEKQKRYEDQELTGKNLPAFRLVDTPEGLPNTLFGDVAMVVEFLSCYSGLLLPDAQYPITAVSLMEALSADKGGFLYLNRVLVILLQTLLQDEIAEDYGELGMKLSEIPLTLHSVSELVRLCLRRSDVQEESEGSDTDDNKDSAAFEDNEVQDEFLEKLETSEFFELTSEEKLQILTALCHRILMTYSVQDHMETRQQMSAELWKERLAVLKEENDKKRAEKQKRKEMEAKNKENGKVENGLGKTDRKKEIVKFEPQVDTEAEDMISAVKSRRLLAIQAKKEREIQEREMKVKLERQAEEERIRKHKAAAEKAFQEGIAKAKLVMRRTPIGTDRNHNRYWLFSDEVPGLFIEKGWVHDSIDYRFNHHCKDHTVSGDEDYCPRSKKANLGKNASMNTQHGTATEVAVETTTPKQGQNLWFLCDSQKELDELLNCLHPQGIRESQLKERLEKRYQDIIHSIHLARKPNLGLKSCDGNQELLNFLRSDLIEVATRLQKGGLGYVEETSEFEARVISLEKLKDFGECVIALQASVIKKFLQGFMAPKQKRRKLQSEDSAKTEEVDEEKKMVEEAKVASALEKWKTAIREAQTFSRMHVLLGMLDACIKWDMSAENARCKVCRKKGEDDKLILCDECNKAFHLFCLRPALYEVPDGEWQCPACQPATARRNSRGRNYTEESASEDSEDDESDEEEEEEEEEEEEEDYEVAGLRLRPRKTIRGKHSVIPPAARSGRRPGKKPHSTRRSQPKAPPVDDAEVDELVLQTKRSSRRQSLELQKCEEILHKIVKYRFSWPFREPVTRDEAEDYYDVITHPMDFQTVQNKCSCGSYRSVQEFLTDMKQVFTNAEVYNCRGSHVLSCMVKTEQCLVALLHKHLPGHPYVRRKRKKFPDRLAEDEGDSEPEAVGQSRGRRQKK
Assay: Binding affinity to BAZ1B in human HUT78 cells incubated for 45 mins by mass spectrometry based bromosphere chemoproteomic assay

Query: // query Kd value for entry Cc1cncc(-c2cnc(N[C@@H]3CCN(C)C[C@H]3OCC3CCS(=O)(=O)CC3)c3[nH]c(=O)c(C)cc23)c1
Response: > 100 µM

Query: Then Cc1cncc(-c2ccc(N[C@@H]3CCNC[C@H]3OCC3CCS(=O)(=O)CC3)c3[nH]c(=O)c(C)cc23)c1 ?
Response: > 100 µM

====

Biological target: Bromodomain-containing protein 4 (Homo sapiens)
Assay: Binding affinity to BRD4 containing BD1 bromodomains (unknown origin) by TR-FRET assay
Some molecules, each annotated with its measured IC50.

- Cc1cncc(-c2cnc(N[C@@H]3CCNC[C@H]3OCC3CCS(=O)(=O)CC3)c3[nH]c(=O)c(C)cc23)c1: 15.8 µM

// below: IC50 requested for another molecule
Query: // query IC50 value for entry Cc1cncc(-c2cnc(N[C@@H]3CCN(C)C[C@H]3OCC3CCS(=O)(=O)CC3)c3[nH]c(=O)c(C)cc23)c1
Response: 79.4 µM

Data provenance is ChEMBL document CHEMBL3588744.
